Settings: in water, 283.15 K
Measure: solubility (mole fraction)

- Chemical string: "O=C([O-])/C=C/C(=O)O.[Na+]"
  Measure: "solubility (mole fraction)"
  Reading: 0.00712

---

Settings: in ethyl acetate, 313.15 K

- Chemical string: "O=C([O-])/C=C/C(=O)O.[Na+]"
  solubility (mole fraction): 0.000219

---

Settings: in ethyl acetate, 303.15 K

- Chemical string: "O=C([O-])/C=C/C(=O)O.[Na+]"
  solubility (mole fraction): 0.000167

---

Details: in n-propanol, 283.15 K
Measure: solubility (mole fraction)

- Chemical string: "O=C([O-])/C=C/C(=O)O.[Na+]"
  Reading: "4.82e-05"

---

Conditions: in ethanol, 303.15 K

- Chemical string: "O=C([O-])/C=C/C(=O)O.[Na+]"
  solubility (mole fraction): "7.35e-05"

---

Settings: in water, 313.15 K
Measure: solubility (mole fraction)

- Chemical string: "O=C([O-])/C=C/C(=O)O.[Na+]"
  Reading: 0.0138

---

Settings: in acetonitrile, 313.15 K
Measure: solubility (mole fraction)

- Chemical string: "O=C([O-])/C=C/C(=O)O.[Na+]"
  Reading: "6.32e-05"

---

Details: in n-propanol, 313.15 K

- Chemical string: "O=C([O-])/C=C/C(=O)O.[Na+]"
  solubility (mole fraction): "8.71e-05"

---

Conditions: in 1,4-dioxane, 303.15 K
Measure: solubility (mole fraction)

- Chemical string: "O=C([O-])/C=C/C(=O)O.[Na+]"
  Reading: 0.000165

---

Settings: in n-pentanol, 313.15 K

- Chemical string: "O=C([O-])/C=C/C(=O)O.[Na+]"
  solubility (mole fraction): "5.45e-05"

---

Settings: in water, 303.15 K

- Chemical string: "O=C([O-])/C=C/C(=O)O.[Na+]"
  solubility (mole fraction): 0.0114

---

Conditions: in acetonitrile, 293.15 K
Measure: solubility (mole fraction)

- Chemical string: "O=C([O-])/C=C/C(=O)O.[Na+]"
  Reading: "5.26e-05"

---

Settings: in n-butanol, 283.15 K
Measure: solubility (mole fraction)

- Chemical string: "O=C([O-])/C=C/C(=O)O.[Na+]"
  Measure: "solubility (mole fraction)"
  Reading: "2.25e-05"

---

Details: in 1,4-dioxane, 313.15 K

- Chemical string: "O=C([O-])/C=C/C(=O)O.[Na+]"
  solubility (mole fraction): 0.000185

---

Settings: in n-propanol, 303.15 K

- Chemical string: "O=C([O-])/C=C/C(=O)O.[Na+]"
  solubility (mole fraction): "7.13e-05"

---

Conditions: in isopropanol, 303.15 K

- Chemical string: "O=C([O-])/C=C/C(=O)O.[Na+]"
  solubility (mole fraction): "4.08e-05"

---

Settings: in methanol, 303.15 K

- Chemical string: "O=C([O-])/C=C/C(=O)O.[Na+]"
  solubility (mole fraction): 0.000495

---

Conditions: in n-propanol, 293.15 K

- Chemical string: "O=C([O-])/C=C/C(=O)O.[Na+]"
  solubility (mole fraction): "6.3e-05"

---

Conditions: in ethyl acetate, 323.15 K
Measure: solubility (mole fraction)

- Chemical string: "O=C([O-])/C=C/C(=O)O.[Na+]"
  Measure: "solubility (mole fraction)"
  Reading: 0.000284

---

Details: in isobutanol, 283.15 K

- Chemical string: "O=C([O-])/C=C/C(=O)O.[Na+]"
  solubility (mole fraction): "9.6e-06"

---

Conditions: in ethanol, 283.15 K
Measure: solubility (mole fraction)

- Chemical string: "O=C([O-])/C=C/C(=O)O.[Na+]"
  Reading: "5.51e-05"

---

Settings: in isobutanol, 303.15 K

- Chemical string: "O=C([O-])/C=C/C(=O)O.[Na+]"
  solubility (mole fraction): "1.62e-05"

---

Conditions: in isopropanol, 293.15 K
Measure: solubility (mole fraction)

- Chemical string: "O=C([O-])/C=C/C(=O)O.[Na+]"
  Measure: "solubility (mole fraction)"
  Reading: "3.02e-05"

---

Conditions: in ethyl acetate, 293.15 K

- Chemical string: "O=C([O-])/C=C/C(=O)O.[Na+]"
  solubility (mole fraction): 0.000121

---

Conditions: in acetonitrile, 323.15 K
Measure: solubility (mole fraction)

- Chemical string: "O=C([O-])/C=C/C(=O)O.[Na+]"
  Reading: "7.05e-05"

---

Details: in ethanol, 323.15 K

- Chemical string: "O=C([O-])/C=C/C(=O)O.[Na+]"
  solubility (mole fraction): "9.51e-05"

---

Conditions: in n-pentanol, 303.15 K
Measure: solubility (mole fraction)

- Chemical string: "O=C([O-])/C=C/C(=O)O.[Na+]"
  Measure: "solubility (mole fraction)"
  Reading: "4.93e-05"

---

Settings: in n-butanol, 303.15 K
Measure: solubility (mole fraction)

- Chemical string: "O=C([O-])/C=C/C(=O)O.[Na+]"
  Measure: "solubility (mole fraction)"
  Reading: "5.97e-05"

---

Details: in water, 323.15 K

- Chemical string: "O=C([O-])/C=C/C(=O)O.[Na+]"
  solubility (mole fraction): 0.0172

---

Details: in isopropanol, 283.15 K
Measure: solubility (mole fraction)

- Chemical string: "O=C([O-])/C=C/C(=O)O.[Na+]"
  Reading: "2.3e-05"

---

Settings: in 1,4-dioxane, 323.15 K

- Chemical string: "O=C([O-])/C=C/C(=O)O.[Na+]"
  solubility (mole fraction): 0.000234

---

Details: in acetone, 293.15 K

- Chemical string: "O=C([O-])/C=C/C(=O)O.[Na+]"
  solubility (mole fraction): "2.81e-05"

---

Details: in isobutanol, 293.15 K
Measure: solubility (mole fraction)

- Chemical string: "O=C([O-])/C=C/C(=O)O.[Na+]"
  Reading: "1.26e-05"

---

Details: in 1,4-dioxane, 293.15 K
Measure: solubility (mole fraction)

- Chemical string: "O=C([O-])/C=C/C(=O)O.[Na+]"
  Measure: "solubility (mole fraction)"
  Reading: 0.000152

---

Settings: in acetone, 313.15 K

- Chemical string: "O=C([O-])/C=C/C(=O)O.[Na+]"
  solubility (mole fraction): "4.83e-05"

---

Conditions: in isopropanol, 323.15 K

- Chemical string: "O=C([O-])/C=C/C(=O)O.[Na+]"
  solubility (mole fraction): "6.76e-05"

---

Conditions: in acetonitrile, 283.15 K

- Chemical string: "O=C([O-])/C=C/C(=O)O.[Na+]"
  solubility (mole fraction): "4.79e-05"

---

Details: in acetone, 303.15 K

- Chemical string: "O=C([O-])/C=C/C(=O)O.[Na+]"
  solubility (mole fraction): "3.78e-05"

---

Conditions: in n-butanol, 293.15 K

- Chemical string: "O=C([O-])/C=C/C(=O)O.[Na+]"
  solubility (mole fraction): "4.63e-05"

---

Conditions: in methanol, 323.15 K
Measure: solubility (mole fraction)

- Chemical string: "O=C([O-])/C=C/C(=O)O.[Na+]"
  Measure: "solubility (mole fraction)"
  Reading: 0.000572

---

Settings: in acetonitrile, 303.15 K
Measure: solubility (mole fraction)

- Chemical string: "O=C([O-])/C=C/C(=O)O.[Na+]"
  Reading: "5.58e-05"

---

Conditions: in n-pentanol, 283.15 K
Measure: solubility (mole fraction)

- Chemical string: "O=C([O-])/C=C/C(=O)O.[Na+]"
  Reading: "3.44e-05"
